measurement_target: SHP2 protein (Homo sapiens, UniProt Q06124)
Sequence (Q06124 whole entry): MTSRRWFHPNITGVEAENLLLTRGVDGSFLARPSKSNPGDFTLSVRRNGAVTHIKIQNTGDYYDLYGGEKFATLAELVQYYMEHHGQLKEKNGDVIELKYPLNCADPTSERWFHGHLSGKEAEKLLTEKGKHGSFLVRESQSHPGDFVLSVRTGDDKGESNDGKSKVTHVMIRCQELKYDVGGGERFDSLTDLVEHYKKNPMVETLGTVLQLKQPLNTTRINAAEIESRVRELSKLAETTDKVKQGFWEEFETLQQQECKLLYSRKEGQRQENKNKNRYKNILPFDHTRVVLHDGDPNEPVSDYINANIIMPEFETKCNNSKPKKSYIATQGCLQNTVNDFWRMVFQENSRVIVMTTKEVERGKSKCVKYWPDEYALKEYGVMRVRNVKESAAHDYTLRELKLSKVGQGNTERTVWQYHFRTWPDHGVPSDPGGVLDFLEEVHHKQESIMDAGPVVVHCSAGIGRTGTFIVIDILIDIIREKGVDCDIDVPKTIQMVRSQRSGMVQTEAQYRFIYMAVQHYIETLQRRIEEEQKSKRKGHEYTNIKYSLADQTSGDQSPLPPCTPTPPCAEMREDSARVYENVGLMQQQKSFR
procedure_text: Degradation activity on SHP2 protein in MIA Paca-2 cells (Western blot, DC50)
Assay type: cell-based
Parameters: endogenous in cells; host or cells: MIA Paca-2 cells
measurement_setup: read-out: Degradation activity for differenct cell lines MIA Paca-2 (DC50)
observation_type: DC50

Known results for compounds:
>  <compound>
CCC1(N)CCN(c2cnc(Sc3cccc(NC(=O)CCCCCCCCN4CCC(c5ccc(C(=O)NCc6ccc7c(c6)CN(C6CCC(=O)NC6=O)C7=O)nn5)CC4)c3)cn2)CC1 (stereo not drawn) [Compound 223]

>  <measurement_target>
SHP2 protein (Homo sapiens, UniProt Q06124)

>  <DC50>
< 100 nM

$$$$
>  <compound>
NC1(CO)CCN(c2cnc(Sc3cccc(NC(=O)CCCCCCN4CC5(CCN(c6ccc(C(=O)NCc7ccc8c(c7)CN(C7CCC(=O)NC7=O)C8=O)nn6)C5)C4)c3)cn2)CC1 (stereo not drawn) [Compound 168]

>  <measurement_target>
SHP2 protein (Homo sapiens, UniProt Q06124)

>  <DC50>
< 100 nM

$$$$
>  <compound>
CC1(N)CCN(c2cnc(Sc3ccc(NC(=O)CCCCCCCCOC4CN(c5ncc(C(=O)NCc6ccc7c(c6)CN(C6CCC(=O)NC6=O)C7=O)cn5)C4)cc3)cn2)CC1 (stereo not drawn) [Compound 74]

>  <measurement_target>
SHP2 protein (Homo sapiens, UniProt Q06124)

>  <DC50>
100 to 1000 nM

$$$$
>  <compound>
C[C@@H]1OCC2(CCN(c3cnc(Sc4cccc(NC(=O)c5ccc(N6CCC(N7CCN(c8ccc(C(=O)NCc9ccc%10c(c9)CN(C9CCC(=O)NC9=O)C%10=O)cc8F)CC7)CC6)c(F)c5)c4)cn3)CC2)[C@@H]1N (stereo partly drawn) [Compound 515]

>  <measurement_target>
SHP2 protein (Homo sapiens, UniProt Q06124)

>  <DC50>
< 100 nM

$$$$
>  <compound>
C[C@@H]1OCC2(CCN(c3cnc(Sc4cccc(NC(=O)c5ccc(N6CCC(N7CC=C(c8ccc(C(=O)NCc9ccc%10c(c9)CN(C9CCC(=O)NC9=O)C%10=O)nc8Cl)CC7)CC6)c(F)c5)c4)cn3)CC2)[C@@H]1N (stereo partly drawn) [Compound 463]

>  <measurement_target>
SHP2 protein (Homo sapiens, UniProt Q06124)

>  <DC50>
> 1000 nM

$$$$

Attention now turns to another entry.
DC50 in this record for CC1(N)CCN(c2cnc(Sc3cccc(NC(=O)c4ccc(N5CCC(N6CCN(c7ccc(C(=O)NCc8ccc9c(c8)CN(C8CCC(=O)NC8=O)C9=O)c(F)c7)CC6)CC5)cc4)c3)cn2)CC1 (stereo not drawn) [Compound 502] : < 100 nM
